Documented remaining activity across a set of compounds
System: Aerobactin synthetase IucA (Klebsiella pneumoniae)
assay text: inhibition of K. pneumoniae IucA enzyme – biochemical, Tocris library, absorbance (AID 1345561);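 further: 100% = enzyme without compound and 0% = no enzyme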
assay context: purified IucA enzyme assay, absorbance (OD) read-out; active compounds read low; concentration not given here
Active and inactive are the calls of the source. How the calls were made is not given here.

{"smiles string": "CS/C(N)=C(C#N)/C(C#N)=C(\\N)SC", "remaining activity": "109% (inactive)"}
{"smiles string": "CC#CCOC(=O)C1=CCCN(C)C1", "remaining activity": "109% (inactive)"}
{"smiles string": "NS(=O)(=O)c1cccc2c1c([N+](=O)[O-])cc1[nH]c(=O)c(=O)[nH]c12", "remaining activity": "96.2% (inactive)"}

* * *

assay text: viability loss in pontine glioma line – cell-based, SU-DIPG-XXV, MIPE5.0, CellTiter-Glo, qHTS, dose response (AID 1347065);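 further: cells exposed to compound for 48 hours before ATP readout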
assay context: CellTiter-Glo ATP luminescence
Results filed as inconclusive are left out. Activity calls are given as the source filed them. Cut-off not given; nearly all actives show AC50 up to about 26 µM.
Labels: active, inactive

{"smiles string": "CN[C@@H](C)C(=O)N[C@H](C(=O)N1CCC[C@H]1c1nc(C(=O)c2ccc(F)cc2)cs1)C1CCCCC1", "label value": "inactive"}
{"smiles string": "Cn1nccc1Nc1nccc(-c2cc3c(s2)C(C)(C)N(CCN2CCOCC2)C3=O)n1", "label value": "active"}
{"smiles string": "Cn1cc(-c2ccncc2)c(-c2ccc(OCc3ccc4ccccc4n3)cc2)n1", "label value": "active"}
{"smiles string": "COc1cc(C(=O)NC2CCN(C)CC2)ccc1Nc1ncc2c(n1)N(C1CCCC1)CCC(=O)N2C(C)C", "label value": "active"}
{"smiles string": "CNCCn1c(=O)c2cc(OC)c(OC)cc2c2cnc3cc4c(cc3c21)OCO4", "label value": "active"}
{"smiles string": "CC1(C)OCCn2c1nc1c(N3CCOCC3)nc(-c3cnc(N)nc3)nc12", "label value": "active"}
{"smiles string": "Cc1ncc(-c2ccnc(Nc3ccc(S(C)(=O)=O)cc3)n2)n1C(C)C", "label value": "active"}
{"smiles string": "CN1CCN(C(=O)c2ccc(-c3ccc4c(C=O)c(O)ccc4c3)s2)CC1", "label value": "active"}
{"smiles string": "COc1c(OCCCN2CCOCC2)ccc2c3n(c(=NC(=O)c4cnc(N)nc4)nc12)CCN3", "label value": "active"}
{"smiles string": "CCOc1ccc(-n2c([C@@H](C)N(Cc3cccnc3)C(=O)Cc3ccc(F)c(C(F)(F)F)c3)nc3ncccc3c2=O)cc1", "label value": "inactive"}

* * *

assay text: drug combination growth inhibition, ovarian cancer – cell-based, oncology-focused library, rucaparib conditional, profiling panel (AID 1508598)
assay context: patient-derived ovarian cancer cells, CellTiter-Glo viability, 144 h; at 0.0781 µM; OCI-C5x cells; with rucaparib 10 µM; active compounds read low; 100% = cells with rucaparib alone
Entries and their viability values follow.
assay metric: viability (%)

{"smiles string": "CCn1c(-c2nonc2N)nc2c(C#CC(C)(C)O)ncc(OC[C@H]3CCCNC3)c21", "recorded number": 124}
{"smiles string": "O=C(Cc1ccc(-c2ccc(OCCN3CCOCC3)cc2)cn1)NCc1ccccc1", "recorded number": 62.9}
{"smiles string": "CC(C)(C)Cn1c(N)nc2ccc(-c3[nH]c(C(C)(C)C)nc3-c3ccc(F)cc3)nc21", "recorded number": 96.9}
{"smiles string": "CC(C)Oc1ccc(C(=O)N[C@H](CNC(=O)CN(C)C)Cc2ccc(-c3cn4cccc([C@H](C)O)c4n3)cc2)cc1Cl", "recorded number": 57.4}
{"smiles string": "CO[C@@H](C(=O)N1Cc2[nH]nc(NC(=O)c3ccc(N4CCN(C)CC4)cc3)c2C1)c1ccccc1", "recorded number": 57.5}
{"smiles string": "CN(NC(=O)CC(=O)NN(C)C(=S)c1ccccc1)C(=S)c1ccccc1", "recorded number": 140}
{"smiles string": "Cc1ccc2c(=O)c3cccc(CC(=O)O)c3oc2c1C", "recorded number": 115}
{"smiles string": "Cc1ccc(S(=O)(=O)Nc2nc3ccccc3nc2Nc2ccc3nsnc3c2)cc1", "recorded number": 122}
{"smiles string": "Cc1nc(N)sc1-c1ccnc(Nc2ccc(N3CCOCC3)cc2)n1", "recorded number": 109}
{"smiles string": "Cn1cc(-c2ccc3nnc(Sc4ccc5ncccc5c4)n3n2)cn1", "recorded number": 120}
{"smiles string": "O=S(=O)(O)CCSSCCS(=O)(=O)O", "recorded number": 100}
{"smiles string": "Cc1ccc(C(=O)Nc2ccc(CN3CCN(C)CC3)c(C(F)(F)F)c2)cc1C#Cc1cnc2cccnn12", "recorded number": 94.7}
{"smiles string": "CC(C)[C@H](C(=O)Nc1ccc(C(=O)NO)cc1)c1ccccc1", "recorded number": 99.7}
{"smiles string": "COc1ccc(-n2c(SCCCN3C(=O)c4cccc5cccc(c45)C3=O)nnc2-c2ccncc2)cc1", "recorded number": 125}
